Source: patent US8703811B2

study.target: pfDHODH (Plasmodium falciparum (isolate 3D7))
assay.explanation: pfDHODH activity with FeCy as electron acceptor
recorded.conditions: read-out: % Inhibition of Product Formation Rate with 50 μM Inhibitor, FeCy
metric: inhibition at 50 µM (%)
Respond numerically; units are % and should not be typed.

Cc1ccccc1/C=C/c1cc(O)c2ccccc2n1 = 1.2
CCCNC(=O)c1ccc(-n2c(C)cc3ccccc32)s1 = 31
CCOC(=O)c1[nH]c(C)c(Cc2ccc(OCC)cc2)c1C = 4.8
CCCCCC1CCCc2c1nc1ccccc1c2O (stereo not drawn) = 17

Query: API: value(readout=inhibition at 50 µM, system=pfDHODH (Plasmodium falciparum (isolate 3D7))) for record Fc1cc(I)ccc1Nc1ccnc2cc(Cl)ccc12
Result: 7.7

Query: Another molecule to check: O=C(NC1CC1)c1ccc(N2CCSc3ccccc32)s1
Result: 23

----------
study.target: scDHODH (Saccharomyces cerevisiae (strain ATCC 204508 / S288c) (Baker's yeast), UniProt P28272)
Sequence (P28272 whole entry): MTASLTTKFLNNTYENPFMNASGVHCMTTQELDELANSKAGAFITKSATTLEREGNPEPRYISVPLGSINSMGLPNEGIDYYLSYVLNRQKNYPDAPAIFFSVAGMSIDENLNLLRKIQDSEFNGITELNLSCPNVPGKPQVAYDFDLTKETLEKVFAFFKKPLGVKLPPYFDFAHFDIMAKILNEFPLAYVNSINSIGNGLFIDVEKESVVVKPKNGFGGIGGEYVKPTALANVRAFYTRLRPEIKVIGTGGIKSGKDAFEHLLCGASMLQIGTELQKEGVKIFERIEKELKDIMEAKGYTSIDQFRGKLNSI
assay.explanation: DCIP assay with fumarate, scDHODH
Assay type: biochemical
recorded.conditions: 115 μM fumarate in lieu of CoQD
# IC50 per entry

CCCNC(=O)c1ccc(-n2c(C)cc3ccccc32)s1 [Compound 1] = > 10 µM

// moving on: another record for IC50
Query: Entry O=C(NC1CC1)c1ccc(N2CCSc3ccccc32)s1 [Compound 5] : reported IC50 = ?
Result: > 10 µM

----------
study.target: pfDHODH (Plasmodium falciparum (isolate 3D7), UniProt Q08210)
Sequence (Q08210 159-565 limits assumed): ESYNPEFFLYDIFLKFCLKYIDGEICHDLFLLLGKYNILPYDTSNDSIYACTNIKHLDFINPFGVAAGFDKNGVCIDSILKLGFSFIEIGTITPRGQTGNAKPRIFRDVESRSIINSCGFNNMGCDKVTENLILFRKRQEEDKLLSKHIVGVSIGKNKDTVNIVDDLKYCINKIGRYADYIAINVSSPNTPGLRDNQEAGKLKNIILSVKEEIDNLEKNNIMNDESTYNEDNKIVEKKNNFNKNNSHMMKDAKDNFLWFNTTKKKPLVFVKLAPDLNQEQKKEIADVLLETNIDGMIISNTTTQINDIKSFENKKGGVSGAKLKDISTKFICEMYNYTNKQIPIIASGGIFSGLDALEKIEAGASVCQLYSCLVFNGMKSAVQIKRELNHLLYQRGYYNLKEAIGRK
assay.explanation: DHODH chromogen reduction (DCIP) assay, pfDHODH
Format: biochemical, P. falciparum
recorded.conditions: Table 3; DCIP assay, 20 nM pfDHODH; read-out: pfDHODH IC50
metric: IC50 (nM)
# output: bare number, implied unit nM

Solved cases (2 shown):
CCCNC(=O)c1ccc(-n2c(C)cc3ccccc32)s1 [Compound 1] = 70
CCCNC(=O)c1ccc(-n2cnc3ccccc32)s1 [Compound 11] = 700

Continue with the next molecule.
Query: IC50 lookup needed for CCCNC(=O)c1ccc(-n2c(C)nc3ccccc32)s1 [Compound 12] , thanks.
Result: 170

----------
study.target: pfDHODH (Plasmodium falciparum (isolate 3D7), UniProt Q08210)
assay.explanation: DHODH chromogen reduction (DCIP) assay, pfDHODH
Type: biochemical, P. falciparum
recorded.conditions: 50 μM inhibitor; 200 μM L-DHO, 100 μM CoQD, 60 μM DCIP; read-out: % Inhibition of Product Formation Rate with 50 μM Inhibitor, CoQD
Description: Type 2 DHODH activity was monitored with either the direct assay measuring the formation of orotate or via a chromogen reduction assay using DCIP. […] Substrate specificity and enzyme inhibition data was analyzed with GraphPad Prism Version 4 for Windows (GraphPad Software). Kinetic constants were calculated by non-linear regression fitting of the data to the Michaelis-Menten equation [36]. IC50 values were determined by non-linear regression fitting of the data to Equation 1: […]
metric: inhibition at 50 µM
Quick note: number first, unit second.

CCCNC(=O)c1ccc(-n2c(C)cc3ccccc32)s1 [Compound 1] = 104%

Kindly consider the entry below.
Query: Give pfDHODH (Plasmodium falciparum (isolate 3D7), UniProt Q08210) inhibition at 50 µM for Cc1ccccc1/C=C/c1cc(O)c2ccccc2n1 [Compound 2]
Result: 94%

----------
study.target: hsDHODH (Homo sapiens (Human), UniProt Q02127)
Sequence (Q02127 29-395 limits assumed): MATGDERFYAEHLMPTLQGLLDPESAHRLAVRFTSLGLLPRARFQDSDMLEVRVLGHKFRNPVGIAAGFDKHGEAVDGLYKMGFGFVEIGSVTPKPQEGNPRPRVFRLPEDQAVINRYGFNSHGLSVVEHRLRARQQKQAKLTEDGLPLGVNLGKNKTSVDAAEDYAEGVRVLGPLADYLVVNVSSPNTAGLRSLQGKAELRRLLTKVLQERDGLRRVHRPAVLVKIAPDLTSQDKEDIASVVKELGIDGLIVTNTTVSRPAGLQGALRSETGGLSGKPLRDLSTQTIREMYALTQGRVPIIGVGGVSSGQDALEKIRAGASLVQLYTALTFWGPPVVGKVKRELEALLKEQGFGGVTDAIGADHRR
assay.explanation: DCIP assay, hsDHODH
Assay type: biochemical
recorded.conditions: Table 2b; read-out: Hu (human DHODH) IC50
Method: Type 2 DHODH activity was monitored with either the direct assay measuring the formation of orotate or via a chromogen reduction assay using DCIP. […] The formation of orotate was measured continuously at 296 nm (ε296=4.3 mM^−1 cm^−1). Inhibition of DHODH by small molecules was evaluated using the chromogen based assay with a final substrate concentration of 200 μM L-DHO, 18 μM CoQD, and 100 μM DCIP, unless otherwise noted. The reduction of DCIP was monitored at 600 nm (ε600=18.8 mM^−1 cm^−1). […]
pIC50: −log10 of the molar value.
metric: pIC50

# count of solved cases: 3
Cc1nc2cc(F)ccc2n1-c1ccc(C(=O)NC2CC2)s1 [Compound 43] = 4.69
CCc1nc2ccccc2n1-c1ccc(C(=O)NC2CC2)s1 [Compound 49] = < 4.52
Cc1nc2cc(C(F)(F)F)ccc2n1-c1ccc(C(=O)NC2CC2)s1 [Compound 64] = 4.55

Query: Recorded pIC50 for COc1ccc2c(c1)nc(C)n2-c1ccc(C(=O)NC2CC2)s1 [Compound 39] , please?
Result: 4.61

Query: Next record, please: O=C(NC1CC1)c1ccc(-n2cnc3ccccc32)s1 [Compound 23]
Result: < 4.52

Query: Same again, this time with CCNC(=O)c1ccc(-n2cc(-c3ccccc3)nc2C)s1 [Compound 75]
Result: < 4.52
